targetOfAssay: UniProt:P0DTD1
method: Inhibition of recombinant full length his tagged C-terminal SARS-CoV 2 main protease (M1 to Q307 residues) expressed in Escherichia coli BL21 (DE3) cells using LGSAVLQ-Rh110-dP as peptide substrate preincubated for 1 hr followed by substrate addition and measured after 24 hrs by fluorescence based analysis
measuredMetric: IC50 (µM)
Kindly provide the numeric value in µM only, without the unit symbol.

# annotated cases, reported IC50 shown
{"structureString": "O=C(NCCC1CCCC1)n1cc(F)c(=O)[nH]c1=O", "targetOfAssay": "UniProt:P0DTD1", "unitAbbrev": "µM", "quantitativeReadout": 4.6}
{"structureString": "O=C(NCCC1CCCCC1)n1cc(F)c(=O)[nH]c1=O", "targetOfAssay": "UniProt:P0DTD1", "unitAbbrev": "µM", "quantitativeReadout": 4.9}
{"structureString": "CC(C)Cn1c(C(=O)NCCCNC(=O)n2cc(F)c(=O)[nH]c2=O)cc2cc(Cl)ccc21", "targetOfAssay": "UniProt:P0DTD1", "unitAbbrev": "µM", "quantitativeReadout": 0.35}

Query block: Notebook: pull reported IC50 for UniProt:P0DTD1, entry "CCCCCCNC(=O)n1cc(CC)c(=O)[nH]c1=O"
Result block: 6.2

Query block: Notebook: pull reported IC50 for UniProt:P0DTD1, entry "CC(C)(C)CC(=O)N1CCC(CCCNC(=O)n2cc(F)c(=O)[nH]c2=O)CC1"
Result block: 1.7

Query block: Notebook: pull reported IC50 for UniProt:P0DTD1, entry "CC(C)Cn1c(C(=O)NCCCNC(=O)n2cc(F)c(=O)[nH]c2=O)cc2ccccc21"
Result block: 0.97

Query block: Notebook: pull reported IC50 for UniProt:P0DTD1, entry "O=C(NCCCCCCc1ccccc1)n1cc(F)c(=O)[nH]c1=O"
Result block: 3.8

Query block: Notebook: pull reported IC50 for UniProt:P0DTD1, entry "CC(C)C[C@H](CNC(=O)c1cc2ccccc2[nH]1)CNC(=O)n1cc(F)c(=O)[nH]c1=O"
Result block: 4.4

Query block: Notebook: pull reported IC50 for UniProt:P0DTD1, entry "CCn1c(C(=O)NCCCNC(=O)n2cc(F)c(=O)[nH]c2=O)cc2ccccc21"
Result block: 1.9

Query block: Notebook: pull reported IC50 for UniProt:P0DTD1, entry "Cn1ccc2ccc(C(=O)NCCCNC(=O)n3cc(F)c(=O)[nH]c3=O)cc21"
Result block: 3.8

Provenance of the data: ChEMBL document CHEMBL5625237
